Sourced from PubChem BioAssay AID1918940

- System: NCI-H211 complex spheroid viability
- ASSAY NAME: Anticancer human tumor NCI-H211 cell line growth inhibition [LSD1];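 note: luminescent viability read after seven days of drug exposure; 100% = DMSO vehicle control viability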
- ASSAY CONDITIONS: second compound 3.16 µM; first compound 0.949 µM; stronger effect = lower value
Parameter: viability, T/C. Scope: all listed entries.

{"columns": ["MOLECULE", "viability, T/C"],
 "data": [
  ["COc1cc(C2c3cc4c(cc3C(OC3OC5COC(C)OC5C(O)C3O)C3COC(=O)C23)OCO4)cc(OC)c1O (stereo not drawn) + NC1CC1c1ccc(-c2cccc(O)c2)cc1", "5.76%"],
  ["O=C(C=Cc1cccc(S(=O)(=O)Nc2ccccc2)c1)NO + NC1CC1c1ccc(-c2cccc(O)c2)cc1", "0.29%"],
  ["CCN(c1cc(-c2ccc(CN3CCOCC3)cc2)cc(C(=O)NCc2c(C)cc(C)[nH]c2=O)c1C)C1CCOCC1 + NC1CCC(NC2CC2c2ccccc2)CC1", "48.7%"]
]}
